Cited source: the supplement of paper PMC10065799

# experimental.system: Jak2 (UniProt O60674)
# Sequence (O60674 whole entry, looked up): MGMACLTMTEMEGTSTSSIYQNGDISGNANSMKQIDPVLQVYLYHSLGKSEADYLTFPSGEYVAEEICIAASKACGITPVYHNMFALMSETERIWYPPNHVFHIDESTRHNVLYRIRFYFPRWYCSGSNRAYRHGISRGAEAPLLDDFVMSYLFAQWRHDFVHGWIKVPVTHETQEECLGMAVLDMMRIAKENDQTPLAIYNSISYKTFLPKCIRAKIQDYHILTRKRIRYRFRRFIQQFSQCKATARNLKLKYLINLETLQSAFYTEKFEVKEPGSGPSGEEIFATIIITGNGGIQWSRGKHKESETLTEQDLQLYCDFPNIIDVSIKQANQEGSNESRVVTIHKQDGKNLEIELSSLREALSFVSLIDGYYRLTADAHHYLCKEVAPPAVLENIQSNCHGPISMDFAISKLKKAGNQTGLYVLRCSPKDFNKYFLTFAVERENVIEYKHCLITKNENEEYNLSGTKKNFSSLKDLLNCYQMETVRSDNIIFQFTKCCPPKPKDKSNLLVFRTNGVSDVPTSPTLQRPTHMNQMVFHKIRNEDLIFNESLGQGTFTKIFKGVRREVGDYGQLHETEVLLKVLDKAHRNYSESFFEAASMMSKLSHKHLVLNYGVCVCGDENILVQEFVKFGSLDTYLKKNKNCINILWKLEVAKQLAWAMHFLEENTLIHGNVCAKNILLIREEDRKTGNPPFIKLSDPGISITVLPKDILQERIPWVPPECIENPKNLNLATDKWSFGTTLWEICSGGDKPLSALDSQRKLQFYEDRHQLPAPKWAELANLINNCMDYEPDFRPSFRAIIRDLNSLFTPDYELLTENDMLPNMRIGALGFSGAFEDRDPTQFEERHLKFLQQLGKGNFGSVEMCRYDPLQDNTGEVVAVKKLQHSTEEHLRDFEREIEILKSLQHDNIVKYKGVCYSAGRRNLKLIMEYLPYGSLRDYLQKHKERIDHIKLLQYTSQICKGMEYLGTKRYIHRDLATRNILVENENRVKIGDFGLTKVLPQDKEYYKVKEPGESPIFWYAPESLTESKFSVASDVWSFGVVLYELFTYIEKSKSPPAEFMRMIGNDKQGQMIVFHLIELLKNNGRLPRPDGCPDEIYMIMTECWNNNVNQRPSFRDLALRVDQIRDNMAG
# test.protocol: phosphorylation enrichment, bacterial display (enrichment ratio); higher = better substrate or ligand; peptides without Tyr show the background;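 further: 11-residue human phosphosite peptides and single-mutation variants displayed on the E. coli surface, counted by deep sequencing, each peptide's frequency after selection divided by its frequency in the unselected input library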;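 further: frequency after pTyr selection over input frequency; kinase dosed for 20-30% of maximal phosphorylation in three min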
What phosphorylation enrichment was measured for each of the following?
Give bare numbers.

sequence.input	phosphorylation enrichment
PDGREYIYVDP [PDGFRA_Y572_H570R]	1.88
FEDTLYTVLHR [UNC13D_Y61_A59T_YF]	1.56
KGERGYPGTPG [COL4A1_Y348]	0.359
HLEKKYVRRDS [CSF1R_Y708]	6.5
HSFNSYTFPRL [PAK5_Y316_YF]	1.31
VLTSTYRGGGG [HBA1_Y141_K140T]	0.509
GQDLFYEDEDL [PACS1_Y303]	1.43
TKFRNYLIPNG [CYP2C8_Y379_K383N]	0.536
IDPYIYTPFGS [CYP3A4_Y432]	2.38
KHGGNYVPAPE [OSCP1_Y237_K242E]	0.471

Please supply phosphorylation enrichment for each of the following items, keeping them in order.
1. PMQMPYDSRWE [PDGFRA_Y582_L580M]
2. KDFTKYVAFIE [KDM4B_Y31_N29T_YF]
3. RRGTRYMSSRP [RPL21_Y13_F15S]
4. PGVDIYVSPNM [PADI3_Y51_I52V]
5. NLNGKYYKPRA [ANGPTL3_Y417_N418Y]
6. AALSAYAAQRP [PTPRN2_Y249]
7. FRQLPYCPSVE [CTNND2_Y508_Q507P_YF]

[2.03, 0.879, 0.699, 1.24, 0.617, 0.462, 1.08]

###

Record form. Attribute: phosphorylation enrichment. Fill in for each entry.
# experimental.system: Hck (UniProt P08631)
# Sequence (P08631 whole entry, looked up): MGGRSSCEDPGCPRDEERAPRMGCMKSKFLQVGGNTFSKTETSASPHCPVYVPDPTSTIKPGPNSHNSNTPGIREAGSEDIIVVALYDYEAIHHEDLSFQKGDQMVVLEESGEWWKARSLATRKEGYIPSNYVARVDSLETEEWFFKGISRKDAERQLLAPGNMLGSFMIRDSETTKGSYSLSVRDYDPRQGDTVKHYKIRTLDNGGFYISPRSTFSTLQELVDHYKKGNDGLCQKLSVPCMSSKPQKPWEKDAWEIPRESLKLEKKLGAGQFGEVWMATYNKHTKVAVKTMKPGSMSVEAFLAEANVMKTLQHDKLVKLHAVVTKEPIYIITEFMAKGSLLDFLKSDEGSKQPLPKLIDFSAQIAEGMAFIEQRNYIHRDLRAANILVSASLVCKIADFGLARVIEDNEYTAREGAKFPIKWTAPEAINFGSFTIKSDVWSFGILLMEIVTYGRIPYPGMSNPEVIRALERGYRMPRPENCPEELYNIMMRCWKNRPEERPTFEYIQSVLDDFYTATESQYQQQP
# test.protocol: phosphorylation enrichment, bacterial display (enrichment ratio); higher = better substrate or ligand; peptides without Tyr show the background

I'm hoping you can list phosphorylation enrichment for every sequence here, please.
1. RLSVDYGKKSK [TUBA3E_Y161_S162G]
2. TIAIRYSHSRR [ACOXL_Y260]
3. CTTIQYNYMCN [TP53_Y234_H233Q]
4. PSELFYSKISP [SMG1_Y2254_G2258S_YF]
5. FVTCTYSPALN [TP53_Y126_S121F]

0.511
0.576
0.551
8.64
0.516

// batch mode: one phosphorylation enrichment value per listed entry
1. SVVVPYEPPEV [TP53_Y220]
2. GIVTGYLVLKE [DNMT3B_Y588_A585V]

1: 0.55; 2: 0.505

###

# experimental.system: FGFR3 (UniProt P22607)
# Sequence (P22607 whole entry, looked up): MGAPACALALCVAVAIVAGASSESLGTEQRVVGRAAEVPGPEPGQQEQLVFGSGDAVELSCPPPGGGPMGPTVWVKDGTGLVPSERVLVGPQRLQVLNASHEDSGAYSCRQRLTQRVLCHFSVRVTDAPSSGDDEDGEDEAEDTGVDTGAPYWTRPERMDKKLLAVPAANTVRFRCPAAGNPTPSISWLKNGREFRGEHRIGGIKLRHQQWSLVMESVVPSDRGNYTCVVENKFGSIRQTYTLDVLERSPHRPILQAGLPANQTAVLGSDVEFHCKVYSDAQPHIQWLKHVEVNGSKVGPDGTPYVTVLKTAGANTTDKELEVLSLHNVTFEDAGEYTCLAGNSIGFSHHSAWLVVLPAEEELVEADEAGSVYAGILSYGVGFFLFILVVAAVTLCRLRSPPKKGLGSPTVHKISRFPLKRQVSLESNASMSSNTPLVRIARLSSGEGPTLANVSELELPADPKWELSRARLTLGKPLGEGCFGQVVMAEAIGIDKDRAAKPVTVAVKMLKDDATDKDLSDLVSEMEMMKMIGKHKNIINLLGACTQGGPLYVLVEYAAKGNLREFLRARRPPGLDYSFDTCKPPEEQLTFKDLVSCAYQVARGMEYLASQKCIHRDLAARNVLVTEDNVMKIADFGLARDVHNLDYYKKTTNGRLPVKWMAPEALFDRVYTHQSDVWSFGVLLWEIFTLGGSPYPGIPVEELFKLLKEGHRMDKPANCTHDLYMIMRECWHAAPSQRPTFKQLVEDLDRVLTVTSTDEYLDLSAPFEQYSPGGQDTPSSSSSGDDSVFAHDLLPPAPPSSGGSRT
# test.protocol: phosphorylation enrichment, bacterial display (enrichment ratio); higher = better substrate or ligand; peptides without Tyr show the background
Param threshold (0.6) applies to phosphorylation enrichment; output Condition met when value >= threshold, Condition not met when value < threshold.

# count of solved cases: 4
sequence.input	label
WNNLDYMDSRR [GAA_Y407_D404N]	Condition met
IHFAIYFLKFS [ARMC9_Y107_L108F_YF]	Condition met
PFGQWYESHFA [RPS8_Y113_R110G_YF]	Condition met
AQVDTYCRHNF [HLA-DRB1_Y107_A103Q_YF]	Condition not met

Check this sequence for phosphorylation enrichment at or above 0.6: QNTGDYCDLYG [PTPN11_Y62_Y63C]
Condition met

Does phosphorylation enrichment meet or surpass 0.6 for IKNSGYISRYL [EIF2AK3_Y585] ?
Condition not met

###

# System: Fer (mouse)
# test.protocol: phosphorylation enrichment, bacterial display (enrichment ratio); higher = better substrate or ligand; peptides without Tyr show the background
For each of the sequences below, state its phosphorylation enrichment.
Give bare numbers.

Recorded phosphorylation enrichment, per entry:
sequence.input	phosphorylation enrichment
TTTQAYRVDER [PRKN_Y391]	0.479
ASENVYVNIAH [CTSC_Y150]	3.79
EWKNNCPRLRE [OPA1_Y582_Y582C]	0.433

Batch of 3 sequences: report phosphorylation enrichment for each.
1. VSGIPYSQPKQ [NEU1_Y251_G252S]
2. SSQTIYQRVEG [TFR2_Y23_V22I]
3. RESYKYLPSSL [CXXC1_Y218_F219L]

1: 0.467; 2: 1.24; 3: 0.546

Item: TVLEPYADPFF [ZC3H18_Y367_YF] | phosphorylation enrichment: 0.536

###

# experimental.system: Hck (UniProt P08631)
# test.protocol: phosphorylation enrichment, bacterial display (enrichment ratio); higher = better substrate or ligand; peptides without Tyr show the background
experimental.readout: phosphorylation enrichment
Numbers only.

// below: answered sequences
sequence.input	phosphorylation enrichment
LLKANYELLNA [POLR3A_Y714_K713N]	0.459
PSDLLYIPDIQ [ITGA2B_Y845_L847P]	0.921
KKYPDYIQIAR [SGMS2_Y59_M64R]	0.48
FGFPGYQSKHF [TIMP3_Y177_YF]	0.496
DVCKNYAEAKD [ALB_Y343]	0.571
LEGAKYVSHGA [ASS1_Y113_R108L]	0.606
EKFVPYYDLFM [IPO5_Y530]	3.27
MENFIYESMQF [CYP19A1_Y361_R365Q_YF]	7.84
SDFFAYSPVRE [H6PD_Y449_YF]	0.68
QNKEDYDGLKE [GSTO1_Y139_A140D]	0.915

Hey, quick one: what's phosphorylation enrichment for each of these?
1. SNNYIYTTLGV [FAM83B_Y639_K640T]
2. DKATEYSQFMR [MAX_Y70_I71S_YF]
3. GGYTCCCDGKK [PROS1_Y266_Y266C]
4. GLRCGYGVLGG [KRTAP20-2_Y15_Y13C]
5. LLANAYIYDVQ [L1CAM_Y418_V421D]
6. LFLALYTGLVH [PIGB_Y402]

1. 7.83
2. 0.631
3. 0.454
4. 0.432
5. 4.13
6. 2.29

###

# experimental.system: Fes (UniProt P07332)
# Sequence (P07332 whole entry, looked up): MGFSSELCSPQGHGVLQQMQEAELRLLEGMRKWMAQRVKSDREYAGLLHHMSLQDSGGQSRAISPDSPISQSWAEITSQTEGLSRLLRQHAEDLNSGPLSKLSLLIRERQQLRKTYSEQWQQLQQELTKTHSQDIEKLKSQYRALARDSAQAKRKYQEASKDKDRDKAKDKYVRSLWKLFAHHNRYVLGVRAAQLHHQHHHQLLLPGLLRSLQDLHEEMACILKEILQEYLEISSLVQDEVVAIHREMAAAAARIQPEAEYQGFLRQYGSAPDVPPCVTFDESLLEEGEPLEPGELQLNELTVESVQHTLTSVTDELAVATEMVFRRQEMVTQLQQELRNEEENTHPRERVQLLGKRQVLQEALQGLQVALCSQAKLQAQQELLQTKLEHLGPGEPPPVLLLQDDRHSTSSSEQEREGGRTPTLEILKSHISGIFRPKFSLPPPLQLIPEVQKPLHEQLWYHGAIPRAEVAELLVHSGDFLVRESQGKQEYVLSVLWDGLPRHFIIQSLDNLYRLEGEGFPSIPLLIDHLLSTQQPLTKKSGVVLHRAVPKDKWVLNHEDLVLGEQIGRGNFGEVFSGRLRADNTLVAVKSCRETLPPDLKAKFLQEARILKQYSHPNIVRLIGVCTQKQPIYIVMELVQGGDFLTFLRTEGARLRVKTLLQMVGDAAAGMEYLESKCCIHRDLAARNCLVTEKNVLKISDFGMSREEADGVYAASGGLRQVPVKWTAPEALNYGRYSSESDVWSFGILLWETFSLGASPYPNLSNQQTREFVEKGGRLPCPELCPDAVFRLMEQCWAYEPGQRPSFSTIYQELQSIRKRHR
# test.protocol: phosphorylation enrichment, bacterial display (enrichment ratio); higher = better substrate or ligand; peptides without Tyr show the background
Values of phosphorylation enrichment greater than or equal to 1 map to TRUE; values below map to FALSE.

The following sequences have reported results that may help.
sequence.input	label
GREEFYVHFVG [KAT8_Y90_YF]	TRUE
ERIELYELDKK [PMM2_Y145_F144L]	TRUE

Decide: is the reported value of phosphorylation enrichment for PSGPTYRGAVP [ASAH1_Y43] equal to or greater than 1?
FALSE

Could you tell me if the measured phosphorylation enrichment of EEALFYLTRVE [SET_Y119_H118Y_YF] reaches 1 or more?
TRUE

Given ALEKTYNTYRS [B4GALNT2_Y538] , state whether its phosphorylation enrichment is at least 1.
FALSE

Item APGNAYGDAGY [SYP_Y250_D248N] with phosphorylation enrichment of 1 or above?
FALSE

Does the reported phosphorylation enrichment for RALCHYFKLNI [ETV6_Y401_R399C_YF] fall at or above the 1 mark?
TRUE

# check: phosphorylation enrichment of LSDGPYSNPFE [EPOR_Y485_YF] is greater than or equal to 1
TRUE

Determine whether this sequence has phosphorylation enrichment no lower than 1: NAPNSYGRRPT [CDKN2A_Y44_I49T]
FALSE

State whether the measured phosphorylation enrichment reaches 1, counting equality as reaching it, for AEMTGYVVTRW [MAPK13_Y182]
TRUE

Form field: phosphorylation enrichment at least 1? Entry: GTTIHYNFMCN [TP53_Y234_C229G_YF]
TRUE

Is phosphorylation enrichment at least 1? Consider AIYWRYSKFFD [SH3PXD2B_Y45_R43W]
TRUE

Identify whether the reported phosphorylation enrichment of the following sequence is 1 or greater: ASRKFYAMKIL [AKT3_Y174_G171R_YF]
FALSE

Does the sequence EEESCYILHSS [PATJ_Y783] have recorded phosphorylation enrichment that is 1 or more?
TRUE

Is phosphorylation enrichment for FQEKSYIKGTS [LCTL_Y331_L326F] at or above 1?
FALSE

Determine whether measured phosphorylation enrichment meets or exceeds 1 for EYRFIYMAVQH [PTPN11_Y515_Q510E]
TRUE

Is phosphorylation enrichment for RLSELYLRRNR [CFAP410_Y68] at or above 1?
TRUE

Is phosphorylation enrichment at least 1? Consider KHASTYREAAT [DEAF1_Y483]
FALSE

Determine whether measured phosphorylation enrichment meets or exceeds 1 for LAIERYVVVCK [RHO_Y136]
TRUE

Test whether the sequence IRRWVYPLTPE [EIF2B5_Y319] records phosphorylation enrichment of 1 or higher.
FALSE

# check: phosphorylation enrichment of MCTVDYLLRLQ [RYR1_Y3921_I3916M] is greater than or equal to 1
TRUE

# check: phosphorylation enrichment of NHFKICNLCAE [PTEN_Y68_Y68C_YF] is greater than or equal to 1
FALSE

Answer whether phosphorylation enrichment of AAVPAYDKIQV [STXBP2_Y401_R405Q] is greater than or equal to 1.
TRUE

Item VKANTYEKFWL [GATM_Y100_P105L_YF] with phosphorylation enrichment of 1 or above?
TRUE

Hello, I need to know if MHDKEYYSVHN [MET_Y1234_Y1230H] has measured phosphorylation enrichment not below 1. Thanks!
FALSE

Tell me whether phosphorylation enrichment is at least 1 here: PQDVTYAQLHS [LILRB4_Y412]
TRUE

Kindly determine if phosphorylation enrichment recorded for CEDGNYSPEIS [PTDSS1_Y424_T423N] is above or exactly 1.
TRUE
